Experiment: Cytotoxicity against human primary fibroblasts assessed as cell viability at 10 uM after 48 hrs by celltiter-glo 2D luminescent assay relative to control
Assay type: cell-based, Fibroblast
Settings: read-out: Activity
viability at 48 h, 10 µM values, listed per item
State the value with its unit after it.

Worked examples, 5 compounds total:
substance.smiles | viability at 48 h, 10 µM
N=C(N)NS(=O)(=O)c1ccc(NC(=O)Nc2ccc(-c3nc(N4CCOCC4)c4ccccc4n3)cc2)cc1 | 92%
O=C(Nc1ccc(-c2nc(N3CCOCC3)c3ccccc3n2)cc1)Nc1cncnc1 | 88%
CC(=O)Nc1ccc(NC(=O)Nc2ccc(-c3nc(N4CCOCC4)c4ccccc4n3)cc2)cc1 | 71%
Oc1cccc(-c2nc(N3CCOCC3)c3oc4ncccc4c3n2)c1 | 42%
O=C(Nc1ccc(CO)cc1)Nc1ccc(-c2nc(N3CCOCC3)c3ccccc3n2)cc1 | 86%

stdin: Report viability at 48 h, 10 µM for O=C(Nc1ccccc1)Nc1ccc(-c2nc(N3CCOCC3)c3ccccc3n2)cc1 please.
stdout: 99%

stdin: Report viability at 48 h, 10 µM for CS(=O)(=O)Nc1ccc(NC(=O)Nc2ccc(-c3nc(N4CCOCC4)c4ccccc4n3)cc2)cc1 please.
stdout: 38%

stdin: Report viability at 48 h, 10 µM for O=C(Nc1ccc(CCO)cc1)Nc1ccc(-c2nc(N3CCOCC3)c3ccccc3n2)cc1 please.
stdout: 63%

stdin: Report viability at 48 h, 10 µM for O=C(NCCO)Nc1ccc(-c2nc(N3CCOCC3)c3ccccc3n2)cc1 please.
stdout: 95%
